Measured binding ratio vs parent P54AR4-83v2 of individual entries
- Assay System: EGFR (form in the assay not stated) (human, UniProt P00533 25-645, limits assumed)
- Measurement Description: ELISA, NEM conjugate 100 nM
I only need the number, in ratio, no unit after it.

>>> reported("P54AR4-83v2 R54C, NEM conjugate (designed binder, NEM on Cys 54, His-tagged) LPAPKNLVVSEVTEDSARLSWDDPWAFYESFLIQYQESEKVGEAIVLTVPGSECSYDLTGLKPGTEYTVSIYGVHNVYKDTNMRGLPLSAIFTT")
1.01
>>> reported("P54AR4-83v2 R18C, NEM conjugate (designed binder, NEM on Cys 18, His-tagged) LPAPKNLVVSEVTEDSACLSWDDPWAFYESFLIQYQESEKVGEAIVLTVPGSERSYDLTGLKPGTEYTVSIYGVHNVYKDTNMRGLPLSAIFTT")
1.05
>>> reported("P54AR4-83v2 F31C, NEM conjugate (designed binder, NEM on Cys 31, His-tagged) LPAPKNLVVSEVTEDSARLSWDDPWAFYESCLIQYQESEKVGEAIVLTVPGSERSYDLTGLKPGTEYTVSIYGVHNVYKDTNMRGLPLSAIFTT")
0.34
>>> reported("P54AR4-83v2 V46C, NEM conjugate (designed binder, NEM on Cys 46, His-tagged) LPAPKNLVVSEVTEDSARLSWDDPWAFYESFLIQYQESEKVGEAICLTVPGSERSYDLTGLKPGTEYTVSIYGVHNVYKDTNMRGLPLSAIFTT")
1.01
>>> reported("P54AR4-83v2 I91C, NEM conjugate (designed binder, NEM on Cys 91, His-tagged; also called 191C) LPAPKNLVVSEVTEDSARLSWDDPWAFYESFLIQYQESEKVGEAIVLTVPGSERSYDLTGLKPGTEYTVSIYGVHNVYKDTNMRGLPLSACFTT")
1.01
>>> reported("P54AR4-83v2 S52C, NEM conjugate (designed binder, NEM on Cys 52, His-tagged) LPAPKNLVVSEVTEDSARLSWDDPWAFYESFLIQYQESEKVGEAIVLTVPGCERSYDLTGLKPGTEYTVSIYGVHNVYKDTNMRGLPLSAIFTT")
1.03

Lookup: Reported binding ratio vs parent P54AR4-83v2 for P54AR4-83v2 D80C, NEM conjugate (designed binder, NEM on Cys 80, His-tagged) LPAPKNLVVSEVTEDSARLSWDDPWAFYESFLIQYQESEKVGEAIVLTVPGSERSYDLTGLKPGTEYTVSIYGVHNVYKCTNMRGLPLSAIFTT : what is it?
Found: 0.97

Lookup: Fill blank: measured binding ratio vs parent P54AR4-83v2 of the binder P54AR4-83v2 E39C, NEM conjugate (designed binder, NEM on Cys 39, His-tagged) LPAPKNLVVSEVTEDSARLSWDDPWAFYESFLIQYQESCKVGEAIVLTVPGSERSYDLTGLKPGTEYTVSIYGVHNVYKDTNMRGLPLSAIFTT is ____.
Found: 1

Lookup: // query binding ratio vs parent P54AR4-83v2 value for entry P54AR4-83v2 A3C, NEM conjugate (designed binder, NEM on Cys 3, His-tagged) LPCPKNLVVSEVTEDSARLSWDDPWAFYESFLIQYQESEKVGEAIVLTVPGSERSYDLTGLKPGTEYTVSIYGVHNVYKDTNMRGLPLSAIFTT
Found: 0.88

Lookup: Recorded binding ratio vs parent P54AR4-83v2 for P54AR4-83v2 T81C, NEM conjugate (designed binder, NEM on Cys 81, His-tagged) LPAPKNLVVSEVTEDSARLSWDDPWAFYESFLIQYQESEKVGEAIVLTVPGSERSYDLTGLKPGTEYTVSIYGVHNVYKDCNMRGLPLSAIFTT , please?
Found: 0.9

Lookup: Entry P54AR4-83v2 L32C, NEM conjugate (designed binder, NEM on Cys 32, His-tagged) LPAPKNLVVSEVTEDSARLSWDDPWAFYESFCIQYQESEKVGEAIVLTVPGSERSYDLTGLKPGTEYTVSIYGVHNVYKDTNMRGLPLSAIFTT : reported binding ratio vs parent P54AR4-83v2 = ?
Found: 1.01

Lookup: Which measured binding ratio vs parent P54AR4-83v2 value corresponds to P54AR4-83v2 E53C, NEM conjugate (designed binder, NEM on Cys 53, His-tagged) LPAPKNLVVSEVTEDSARLSWDDPWAFYESFLIQYQESEKVGEAIVLTVPGSCRSYDLTGLKPGTEYTVSIYGVHNVYKDTNMRGLPLSAIFTT ?
Found: 1.02

Lookup: Would you kindly share the measured binding ratio vs parent P54AR4-83v2 for P54AR4-83v2 I45C, NEM conjugate (designed binder, NEM on Cys 45, His-tagged) LPAPKNLVVSEVTEDSARLSWDDPWAFYESFLIQYQESEKVGEACVLTVPGSERSYDLTGLKPGTEYTVSIYGVHNVYKDTNMRGLPLSAIFTT ?
Found: 1.04

Lookup: Can you look up the measured binding ratio vs parent P54AR4-83v2 of P54AR4-83v2 H75C, NEM conjugate (designed binder, NEM on Cys 75, His-tagged) LPAPKNLVVSEVTEDSARLSWDDPWAFYESFLIQYQESEKVGEAIVLTVPGSERSYDLTGLKPGTEYTVSIYGVCNVYKDTNMRGLPLSAIFTT for me?
Found: 0.19

Lookup: Fill in the blank: the reported binding ratio vs parent P54AR4-83v2 of P54AR4-83v2 T13C, NEM conjugate (designed binder, NEM on Cys 13, His-tagged) LPAPKNLVVSEVCEDSARLSWDDPWAFYESFLIQYQESEKVGEAIVLTVPGSERSYDLTGLKPGTEYTVSIYGVHNVYKDTNMRGLPLSAIFTT is ____.
Found: 1.04

Lookup: Reported binding ratio vs parent P54AR4-83v2, binder P54AR4-83v2 S16C, NEM conjugate (designed binder, NEM on Cys 16, His-tagged) LPAPKNLVVSEVTEDCARLSWDDPWAFYESFLIQYQESEKVGEAIVLTVPGSERSYDLTGLKPGTEYTVSIYGVHNVYKDTNMRGLPLSAIFTT : ____
Found: 1.05

Lookup: I have this binder here, P54AR4-83v2 G85C, NEM conjugate (designed binder, NEM on Cys 85, His-tagged) LPAPKNLVVSEVTEDSARLSWDDPWAFYESFLIQYQESEKVGEAIVLTVPGSERSYDLTGLKPGTEYTVSIYGVHNVYKDTNMRCLPLSAIFTT , and I need its recorded binding ratio vs parent P54AR4-83v2.
Found: 0.02

The values you see were collected from patent US20170362301A1.
